Test system: HCC1395 (Breast Carcinoma);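 also: after 72 h of two-drug dosing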
Test: Bliss excess, mean over the matrix (fraction); higher = more synergy
OUTCOME_MEASURE: Bliss excess
Answers are plain numbers.

# example entries with known answers
IN: For the compound Cn1cnc2c(F)c(Nc3ccc(Br)cc3Cl)c(C(=O)NOCCO)cc21 [Selumetinib] + CC(C)n1c(=O)n(C)c2cnc3cc(F)c(-c4ccc(OCCCN5CCCCC5)nc4)cc3c21 [AZD1390] (first compound max 10 µM, 7x7, partner max 0.3 µM) , report Bliss excess.
OUT: -0.0327

IN: For the compound C[C@@H](Oc1cc(-c2cnn(C3CCNCC3)c2)cnc1N)c1c(Cl)ccc(F)c1Cl [Crizotinib] + CC1=C(C(=CC=C1)Cl)NC(=O)C2=CN=C(S2)NC3=CC(=NC(=N3)C)N4CCN(CC4)CCO [Dasatinib] (first compound max 10 µM, 7x7, partner max 2 µM) , report Bliss excess.
OUT: 0.0615

IN: For the compound O=C(c1cc(Cc2n[nH]c(=O)c3ccccc23)ccc1F)N1CCN(C(=O)C2CC2)CC1 [Olaparib] + Cc1c2c(nn1C)CSCc1cc(n(C)n1)CSc1cc(c3ccccc3c1)OCCCc1c(C(=O)O)n(C)c3c-2c(Cl)ccc13 [AZD5991] (first compound max 10 µM, 7x7, partner max 1 µM) , report Bliss excess.
OUT: -0.016

IN: For the compound COc1cccc(OCCCN)c1-c1cc(Nc2cnc(C#N)cn2)n[nH]1 [Prexasertib] + C=CCn1c(=O)c2cnc(Nc3ccc(N4CCN(C)CC4)cc3)nc2n1-c1cccc(C(C)(C)O)n1 [AZD1775] (first compound max 1 µM, partner max 1 µM) , report Bliss excess.
OUT: 0.0111

IN: For the compound Cc1cc2ncnn2cc1Nc1ncc2c(n1)n(C1CCOCC1)c(=O)n2C [AZD7648] + O=C(c1cc(Cc2n[nH]c(=O)c3ccccc23)ccc1F)N1CCN(C(=O)C2CC2)CC1 [Olaparib] (first compound max 10 µM, 7x7, partner max 10 µM) , report Bliss excess.
OUT: -0.0871

IN: For the compound N#Cc1cnc(Nc2cc(NC[C@H]3CNCCO3)c(C(F)(F)F)cn2)cn1 [SRA737] + CCc1c2c(nc3ccc(O)cc13)-c1cc3c(c(=O)n1C2)COC(=O)[C@]3(O)CC [SN-38] (first compound max 10 µM, 7x7, partner max 0.3 µM) , report Bliss excess.
OUT: -0.0012

Continuing:
IN: For the compound C=CCn1c(=O)c2cnc(Nc3ccc(N4CCN(C)CC4)cc3)nc2n1-c1cccc(C(C)(C)O)n1 [AZD1775] + C[C@@H]1COCCN1C2=NC(=NC(=C2)C3(CC3)[S@](=N)(=O)C)C4=C5C=CNC5=NC=C4 [AZD6738] (first compound max 1 µM, partner max 10 µM) , report Bliss excess.
OUT: 0.0091
